Molecular target: T1, human GIP receptor (human, UniProt P48546 22-466)
T1 sequence (looked up): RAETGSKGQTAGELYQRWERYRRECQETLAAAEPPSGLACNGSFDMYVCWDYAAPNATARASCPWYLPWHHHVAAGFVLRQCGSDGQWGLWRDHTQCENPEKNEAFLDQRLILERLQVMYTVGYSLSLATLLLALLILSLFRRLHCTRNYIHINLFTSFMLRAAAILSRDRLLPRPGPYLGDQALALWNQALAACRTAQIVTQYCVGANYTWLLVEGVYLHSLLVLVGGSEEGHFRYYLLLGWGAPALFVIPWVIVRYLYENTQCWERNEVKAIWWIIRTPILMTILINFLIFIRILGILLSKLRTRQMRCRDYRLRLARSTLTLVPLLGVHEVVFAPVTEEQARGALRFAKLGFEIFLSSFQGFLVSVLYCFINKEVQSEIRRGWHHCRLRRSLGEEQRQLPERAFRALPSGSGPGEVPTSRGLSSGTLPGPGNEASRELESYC
Experiment: cell-based or functional assay
metric: cAMP EC50, in the presence of 0.1% casein (nM)
Unit nM implied. Number only.

Exam item: Which cAMP EC50, in the presence of 0.1% casein reading was recorded for the binder YXQGTXTSDYSILLDKKAQXAFIEYLLEGGPSSGAPPPS (Aib at 2; αMeF at 6; K17 conjugated at the epsilon-amino group with (2-[2-(2-amino-ethoxy)-ethoxy]-acetyl)2-(γGlu)-CO-(CH2)18-CO2H; Aib at 20; C-terminal amide, Synthetic acylated peptide) [Example 1] ?
Marked response: 0.0226

Exam item: I'd like to know its cAMP EC50, in the presence of 0.1% casein. The binder in question is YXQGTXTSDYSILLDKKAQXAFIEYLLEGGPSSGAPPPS (Aib at 2; αMeF(2F) at 6; K17 conjugated at the epsilon-amino group with (2-[2-(2-amino-ethoxy)-ethoxy]-acetyl)-(γGlu)-CO-(CH2)18-CO2H; Aib at 20; C-terminal amide, Synthetic acylated peptide) [Example 4]
Marked response: 0.0321

Exam item: Recorded cAMP EC50, in the presence of 0.1% casein of YXQGTXTSDYSIXLDKKAQXAFIEYLLEGGPSSGAPPPS (Aib at 2; αMeF at 6; αMeL at 13; K17 conjugated at the epsilon-amino group with (2-[2-(2-amino-ethoxy)-ethoxy]-acetyl)2-(γGlu)-CO-(CH2)18-CO2H; Aib at 20; C-terminal amide, Synthetic acylated peptide) [Example 2] , please.
Marked response: 0.0329

Exam item: Name the recorded cAMP EC50, in the presence of 0.1% casein for YXHGTXTSDYSILLDKKAQXAFIEYLLEGGPSSGAPPPS (Aib at 2; αMeF(2F) at 6; K17 conjugated at the epsilon-amino group with (2-[2-(2-amino-ethoxy)-ethoxy]-acetyl)2-(γGlu)-CO-(CH2)18-CO2H; Aib at 20; C-terminal amide, Synthetic acylated peptide) [Example 3] .
Marked response: 0.0215

The reported numbers originate from patent US20240190936A1.
